Assay: Acute toxicity (LD50) in mouse, three administration routes
Conditions: in vivo, ip, intraperitoneal
READOUT NAME: LD50

# input Requested read-out: LD50. Entry: Clc1ccc(COC(Cn2ccnc2)c2ccc(Cl)cc2Cl)c(Cl)c1 (stereo not shown) [Miconazole, reference compound]
# output ~600 mg/kg

====

Assay: Acute toxicity (LD50) in rat, three administration routes
Conditions: in vivo, oral, males
READOUT NAME: LD50 (mg/kg)
Your answer should be a plain number; it is taken to be in mg/kg.

# input Record request: LD50 value, item Clc1ccc(COC(Cn2ccnc2)c2ccc(Cl)cc2Cl)c(Cl)c1 (centres unmarked) [Miconazole, reference compound]
# output 920

====

Experiment: in vivo
Conditions: mouse, ip
// reported LD50 for each item listed
Hi! Could you send only the number? It should be in mg/kg, unit omitted.

Worked cases, LD50 given:
# input Looking for the measured LD50 of Clc1ccc(C(Cn2ccnc2)OCc2coc3c(Cl)cccc23)c(Cl)c1 (stereo not drawn) [Martin compound 1, reference compound] , can you help?
# output 518

# input // returns reported LD50 for input Clc1ccc(C(Cn2ccnc2)OCc2cc3cc(Cl)ccc3o2)c(Cl)c1 (stereo not drawn) [Martin compound 3, reference compound]
# output 640

New cases:
# input What value of LD50 has been reported for the following molecule? Clc1ccc(C(Cn2ccnc2)OCc2coc3cc(Cl)ccc23)c(Cl)c1 (stereo not drawn) [Martin compound 2, reference compound]
# output 640

====

Assay: Acute toxicity (LD50) in mouse, three administration routes
Settings: in vivo, ip, intraperitoneal, males
READOUT NAME: LD50 (mg/kg)
Express it in mg/kg; write the number only.

# input Item Clc1ccc(COC(Cn2ccnc2)c2ccc(Cl)cc2Cl)c(Cl)c1 (centres unmarked) [Miconazole, reference compound] has what recorded LD50?
# output 662

====

Experiment: Acute toxicity (LD50) in mouse, three administration routes
Settings: in vivo, sc, subcutaneous
READOUT NAME: LD50

# input Entry Clc1ccc(COC(Cn2ccnc2)c2ccc(Cl)cc2Cl)c(Cl)c1 (stereo not shown) [Miconazole, reference compound] : reported LD50 = ?
# output > 5000 mg/kg

====

Assay: Acute toxicity (LD50) in mouse, three administration routes
Details: in vivo, sc, subcutaneous, males
READOUT NAME: LD50

# input // lookup LD50 for Clc1ccc(COC(Cn2ccnc2)c2ccc(Cl)cc2Cl)c(Cl)c1 (centres unmarked) [Miconazole, reference compound]
# output > 5000 mg/kg

Others:
# input Could you share which LD50 value was measured for Clc1ccc(C(Cn2ccnc2)OCc2csc3c(Cl)cccc23)c(Cl)c1 (centres unmarked) ?
# output > 8000 mg/kg

====

Assay: Acute toxicity (LD50) in rat, three administration routes
Settings: in vivo, ip, intraperitoneal, males
READOUT NAME: LD50 (mg/kg)
Numeric answer only, unit mg/kg assumed.

# input For Clc1ccc(COC(Cn2ccnc2)c2ccc(Cl)cc2Cl)c(Cl)c1 (centres unmarked) [Miconazole, reference compound] , what is its reported LD50?
# output 1180

====

Experiment: Prolonged subacute toxicity in rats
Type: in vivo, rat
Conditions: rat, in vivo, po
Experimental: In a study of prolonged subacute toxicity of Miconazole in rats, among other effects, significant hepatomegalias in females with a dosage of under 30 mg/kg p.o. and in males with a dosage of under 60 mg/kg p.o. were observed.
READOUT NAME: NOAEL

# input Quick one: NOAEL for Clc1ccc(C(Cn2ccnc2)OCc2csc3c(Cl)cccc23)c(Cl)c1 (stereo not shown) ?
# output ≥ 300 mg/kg
